# study-target: T1, human TSH receptor (full length), coated on tubes (human, UniProt P16473 22-764)
# T1 construct: TSHR coated tubes as described in WO2004/050708A2; Exact preparation on the tubes is not detailed here; also called thyroid stimulating hormone receptor
# assay-summary: competition with 125I-K1-18 IgG on TSHR coated tubes; 1 µg/mL, diluted in HBD serum pool
measurement-type: Inhibition of binding (%)

[[record]]
binder = "K1-70 IgG (antibody, V domains shown) VH: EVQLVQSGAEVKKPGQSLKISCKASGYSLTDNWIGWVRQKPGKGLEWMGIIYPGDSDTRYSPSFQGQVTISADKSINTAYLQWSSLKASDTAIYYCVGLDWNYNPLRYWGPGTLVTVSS VL: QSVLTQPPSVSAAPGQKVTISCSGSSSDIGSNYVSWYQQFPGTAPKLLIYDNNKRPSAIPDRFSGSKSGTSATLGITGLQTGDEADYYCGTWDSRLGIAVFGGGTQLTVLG"
measurement_type = "Inhibition of binding (%)"
readout_number = 92.9

[[record]]
binder = "K1-18 IgG (antibody, V domains shown) VH: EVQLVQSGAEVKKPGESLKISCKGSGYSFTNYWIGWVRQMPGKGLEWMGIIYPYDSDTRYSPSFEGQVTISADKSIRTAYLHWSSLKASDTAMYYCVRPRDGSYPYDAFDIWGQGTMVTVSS VL: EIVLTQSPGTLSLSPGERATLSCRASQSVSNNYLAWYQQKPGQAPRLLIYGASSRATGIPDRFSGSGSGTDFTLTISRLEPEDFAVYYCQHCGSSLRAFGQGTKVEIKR"
measurement_type = "Inhibition of binding (%)"
readout_number = 91.1

[[record]]
binder = "K1-18 Fab (Fab, V domains shown) VH: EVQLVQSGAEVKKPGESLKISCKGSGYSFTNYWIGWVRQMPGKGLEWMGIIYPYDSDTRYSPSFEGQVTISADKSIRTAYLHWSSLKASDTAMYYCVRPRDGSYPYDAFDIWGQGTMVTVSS VL: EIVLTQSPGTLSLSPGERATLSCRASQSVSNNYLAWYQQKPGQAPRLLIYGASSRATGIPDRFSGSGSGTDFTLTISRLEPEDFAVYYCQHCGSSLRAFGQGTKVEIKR"
measurement_type = "Inhibition of binding (%)"
readout_number = 80.2

[[record]]
binder = "K1-70 Fab (Fab, V domains shown) VH: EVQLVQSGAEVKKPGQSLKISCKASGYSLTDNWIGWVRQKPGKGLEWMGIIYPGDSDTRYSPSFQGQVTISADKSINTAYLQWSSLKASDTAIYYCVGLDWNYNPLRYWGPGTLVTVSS VL: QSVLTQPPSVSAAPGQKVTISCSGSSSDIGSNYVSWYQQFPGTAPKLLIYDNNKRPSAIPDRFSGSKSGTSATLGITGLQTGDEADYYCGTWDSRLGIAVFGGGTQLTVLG"
measurement_type = "Inhibition of binding (%)"
readout_number = 92.1

